Where do these numbers come from? They come from patent US20250051355A1.

TEST TARGET: human calcitonin receptor (CTR) (Homo sapiens, UniProt P30988)
Sequence (P30988 25-474): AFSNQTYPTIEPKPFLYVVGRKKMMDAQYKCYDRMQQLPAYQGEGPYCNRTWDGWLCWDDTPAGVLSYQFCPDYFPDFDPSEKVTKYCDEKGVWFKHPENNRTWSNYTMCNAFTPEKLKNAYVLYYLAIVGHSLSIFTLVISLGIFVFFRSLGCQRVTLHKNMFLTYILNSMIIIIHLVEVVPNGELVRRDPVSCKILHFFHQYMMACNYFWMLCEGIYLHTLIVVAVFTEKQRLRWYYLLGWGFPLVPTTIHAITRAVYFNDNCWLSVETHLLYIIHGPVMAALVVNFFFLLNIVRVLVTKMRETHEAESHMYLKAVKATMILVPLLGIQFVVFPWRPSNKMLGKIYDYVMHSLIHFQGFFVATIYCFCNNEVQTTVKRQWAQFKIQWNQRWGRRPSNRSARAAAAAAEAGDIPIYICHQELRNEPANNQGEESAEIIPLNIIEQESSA
TEST PROTOCOL: Calcitonin receptor (CTR) cAMP Assay
CONDITION NOTES: COS7-human CTR Clone #2 cells, cAMP dynamic 2 kit; read-out: Calcitonin Receptor cAMP Stimulation Activity: EC50
PROPERTY LABEL: EC50
# number then unit; no other words

Worked examples follow.
Cc1nnc(-c2c(CCC3CCOC(C)(C)C3)nc3c(c2-c2ccc4c(c2)oc(=O)n4Cc2ccc(C#N)c(F)c2)C(=O)N2CCOC[C@@H]32)o1 (stereo partly drawn) [Compound 112] | 5.3 nM
Cc1cnc(-c2c(CCC3CCOCC3)nc3c(c2-c2ccc4c(c2)oc(=O)n4Cc2ccc(C#N)c(F)c2)c(=O)n2n3CCC2)o1 [Compound 152] | 7.28 nM

Let's switch to this compound now.
(Q) Quick one: EC50 of Cc1nnc(-c2c(CCC3CCOCC3)nc3c(c2-c2ccc4c(ccn4C(C)c4ccc(C#N)c(F)c4)c2)C(=O)N2CCOC[C@@H]32)o1 (stereo partly drawn) [Compound 110] ?
(A) 6.16 nM

----------
TEST TARGET: UniProt:P30988
TEST PROTOCOL: Calcitonin receptor (CTR) cAMP Assay
CONDITION NOTES: COS7-human CTR Clone #2 cells, cAMP dynamic 2 kit; read-out: Calcitonin Receptor cAMP Stimulation Activity: EC50
PROPERTY LABEL: EC50 (nM)
Write the answer as a number in nM, unit excluded.

Worked examples follow.
Cc1nnc(-c2c(CCc3ccc(F)cc3)nc3c(c2-c2ccc4c(c2)oc(=O)n4C(C)c2ccc(C#N)c(F)c2)c(=O)n2n3CCC2)o1 (stereo not drawn) [Compound 140] | 0.336
Cc1nnc(-c2c(CCC3CCOCC3)nc3c(c2-c2ccn4c(Cc5ccc(F)c(F)c5)cnc4c2)S(=O)(=O)CC3C(C)C)o1 (stereo not drawn) [Compound 122] | 49.2
Cc1nnc(-c2c(CCC3CCOCC3)nc3c(c2-c2ccc4c(c2)oc(=O)n4Cc2ccc(C#N)c(F)c2)S(=O)(=O)CC3C(C)C)o1 (stereo not drawn) [Compound 109] | 1.51
Cc1nnc(-c2c(CCc3ccc(F)cc3)nc3c(c2-c2ccc(C(=O)NCc4ccc(F)c(F)c4)s2)S(=O)(=O)N2CCC[C@@H]32)o1 [Compound 17] | 5.5
Cc1nnc(-c2c(CCC3CCOCC3)nc3c(c2-c2cc4ccnc(N[C@@H]5CCc6ncccc65)c4s2)c(=O)n2n3CCC2)o1 [Compound 113] | 95.6
Cc1nnc(-c2c(CCC3CCOCC3)nc3c(c2-c2cc4ccnc(N[C@@H]5CCc6ncccc65)c4s2)S(=O)(=O)CC3C(C)C)o1 (stereo partly drawn) [Compound 78] | 13
Cc1nnc(-c2c(CCc3ccc(F)cc3)nc3c(c2-c2ccc(C(=O)NCc4ccc(F)c(F)c4)s2)S(=O)(=O)CC3C(C)C)o1 (stereo not drawn) [Compound 19] | 5.3
Cc1nnc(-c2c(CCC3CCOCC3)nc3c(c2-c2cc4ccnc(N[C@@H]5CCc6ncccc65)c4s2)C(=O)N2CCOC[C@@H]32)o1 [Compound 95] | 35.6
Cc1nnc(-c2c(CCC3CCOCC3)nc3c(c2-c2ccc(C(=O)NCc4ccc(F)c(F)c4)s2)C(=O)N2CCC[C@@H]32)o1 [Compound 29] | 31
COc1cccc2c1CC[C@H]2Nc1nccc2cc(-c3c4c(nc(CCc5ccc(F)cc5)c3-c3nnc(N)o3)[C@@H]3CCCN3C4=O)sc12 [Compound 86] | 0.398

(Q) Quick one: EC50 of Cc1nnc(-c2c(CCC3CCOC3)nc3c(c2-c2cc4ncnc(N[C@@H]5CCc6ncccc65)c4s2)S(=O)(=O)CC3C(C)C)o1 (stereo partly drawn) [Compound 99] ?
(A) 208

(Q) Follow-up item: Cc1cc(-c2c(CCC3CCOCC3)nc3c(c2-c2ccc4c(c2)oc(=O)n4Cc2ccc(C#N)c(F)c2)c(=O)n2n3CCC2)ccn1 [Compound 151]
(A) 5.12
